Readings of Efficacy for the listed compounds
system: Fusarium nivale (var. majus); assay: In vivo preventive test on Fusarium nivale (wheat); conditions: 500 ppm of active ingredient, evaluated 5 days after inoculation

Compound: CCC(c1ccccc1)C1CCCCN1C(=S)c1c(C(F)F)nn(C)c1F (centres unmarked)
Efficacy (%): 71
--
Compound: CCc1nn(C)c(F)c1C(=O)N1CCCCC1c1ccc(Cl)cc1 (centres unmarked)
Efficacy (%): 71
--
Compound: Cc1cc(C)cc(C2CCCCN2C(=O)c2c(C(F)F)nn(C)c2F)c1 (centres unmarked)
Efficacy (%): 100
--
Compound: CCc1nn(C)c(F)c1C(=O)N1CCCCC1c1cc(C)cc(C)c1 (centres unmarked)
Efficacy (%): 83
--
Compound: CCC(c1ccccc1)C1CCCCN1C(=O)c1c(C(F)F)nn(C)c1F (centres unmarked)
Efficacy (%): 86
--
Compound: Cc1cc(C(=O)N2CCCCC2c2ccc(Cl)cc2)c(C)o1 (centres unmarked)
Efficacy (%): 100
--
Compound: Cc1cc(C)cc(C2CCCCN2C(=O)c2c(C)nn(C)c2F)c1 (centres unmarked)
Efficacy (%): 88
--
Compound: Cc1nn(C)c(F)c1C(=O)N1CCCCC1c1cccc(Br)c1 (centres unmarked)
Efficacy (%): 100

###

Readings of logP for the listed compounds
assay: log P by HPLC on reversed-phase column (C 18), EEC Directive 79/831 Annex V.A8; format: physicochemical; conditions: HPLC on reversed-phase column (C 18); 40° C.; 0.1% aqueous formic acid and acetonitrile; linear gradient 10% to 90% acetonitrile

Compound: Cc1cc(C)cc(C2CCCCN2C(=O)c2ccsc2I)c1 (centres unmarked) [Example 35]
logP: 4.21
--
Compound: Cc1cc(C)cc(C2CCCCN2C(=O)c2sc(C)nc2C)c1 (centres unmarked) [Example 27]
logP: 3.44
--
Compound: Cn1nc(C(F)F)c(C(=O)N2CCCCC2CCc2cccs2)c1F (centres unmarked) [Example 194]
logP: 3.25
--
Compound: Cn1nc(C(F)F)c(C(=O)N2CCCCC2CCOc2ccc(F)cc2F)c1Cl (centres unmarked) [Example 183]
logP: 3.46
--
Compound: Cc1nn(C)c(F)c1C(=O)N1CCCCC1c1cccc(Cl)c1Cl (centres unmarked) [Example 73]
logP: 3.25

###

Readings of logP for the listed molecules
Experiment: log P by HPLC on reversed-phase column (C 18), EEC Directive 79/831 Annex V.A8
Type: physicochemical
Conditions: HPLC on reversed-phase column (C 18); 40° C.; 0.1% aqueous formic acid and acetonitrile; linear gradient 10% to 90% acetonitrile
Description: In table 1, the log P values were determined in accordance with EEC Directive 79/831 Annex V.A8 by HPLC (High Performance Liquid Chromatography) on a reversed-phase column (C 18), using the method described below: Temperature: 40° C.; Mobile phases: 0.1% aqueous formic acid and acetonitrile; linear gradient from 10% acetonitrile to 90% acetonitrile. […]

Molecule: Cc1cc(C(=O)N2CCCCC2Cc2ccccc2)c(C)o1 (centres unmarked) [Example 132]
logP: 3.58

Molecule: Cn1nc(C(F)F)c(C(=O)N2CCCCC2CCOc2ccc(C(F)(F)F)cn2)c1Cl (centres unmarked) [Example 195]
logP: 3.74

Molecule: Cc1cc(C(=O)N2CCCCC2c2ccccc2Cl)c(C)o1 (centres unmarked) [Example 39]
logP: 3.89

Molecule: Cn1nc(C(F)F)c(C(=O)N2CCCCC2c2cccc(Br)c2)c1F (centres unmarked) [Example 97]
logP: 3.51

Molecule: Cc1ccc(CC2CCCCN2C(=O)c2sc(C)nc2C(F)F)cc1 (centres unmarked) [Example 148]
logP: 3.59

Molecule: Cc1ccc(OCC2CCCCN2C(=O)c2c(C(F)F)nn(C)c2Cl)cc1 (centres unmarked) [Example 149]
logP: 3.55

Molecule: CCc1nn(C)c(F)c1C(=O)N1CCCCC1c1ccc2c(c1)OCO2 (centres unmarked) [Example 59]
logP: 2.73

Molecule: Cc1nc(C(F)F)c(C(=O)N2CCCCC2CCc2cccs2)s1 (centres unmarked) [Example 192]
logP: 3.35

Molecule: Cc1cc(C(=O)N2CCCCC2c2ccc3ccccc3c2)c(C)o1 (centres unmarked) [Example 120]
logP: 4.39

Molecule: Cc1nn(C)c(F)c1C(=O)N1CCCCC1Cc1ccccc1 (centres unmarked) [Example 129]
logP: 2.54

Molecule: CCc1nn(C)c(F)c1C(=O)N1CCCCC1c1ccc(Br)cc1 (centres unmarked) [Example 102]
logP: 3.51

Molecule: Cc1cc(C(=O)N2CCCCC2c2ccc3c(c2)OCCO3)c(C)o1 (centres unmarked) [Example 62]
logP: 3.25

Molecule: Cn1nc(C(F)F)c(C(=O)N2CCCCC2Cc2ccccc2)c1F (centres unmarked) [Example 134]
logP: 3.09

Molecule: CCc1nn(C)c(F)c1C(=O)N1CCCCC1c1cccc(Br)c1 (centres unmarked) [Example 94]
logP: 3.44

Molecule: Cc1cc(C)cc(C2CCCCN2C(=O)c2nn(C)cc2Cl)c1 (centres unmarked) [Example 19]
logP: 3.44

Molecule: Cc1cc(C)cc(C2CCCCN2C(=O)c2sc(C)nc2Cl)c1 (centres unmarked) [Example 28]
logP: 4.06

Molecule: Cc1ccc(CC2CCCCN2C(=O)c2c(C(F)F)nn(C)c2F)cc1 (centres unmarked) [Example 147]
logP: 3.46

Molecule: Cn1nc(C(F)F)c(C(=O)N2CCCCC2CCOc2ccc(-c3ccccc3)cc2)c1Cl (centres unmarked) [Example 188]
logP: 4.49

Molecule: CC(c1ccccc1)C1CCCCN1C(=O)c1c(C(F)F)nn(C)c1Cl (centres unmarked) [Example 137]
logP: 3.59

Molecule: Cc1nn(C)c(Cl)c1C(=O)N1CCCCC1c1ccc(Cl)cc1Cl (centres unmarked) [Example 75]
logP: 3.60

###

assay: log P by HPLC on reversed-phase column (C 18), EEC Directive 79/831 Annex V.A8; assay type: physicochemical; conditions: HPLC on reversed-phase column (C 18); 40° C.; 0.1% aqueous formic acid and acetonitrile; linear gradient 10% to 90% acetonitrile
Property Measured: logP

Compound: Cc1cc(C(=O)N2CCCCC2c2ccc(Cl)cc2)c(C)o1 (centres unmarked)
Property Measured: logP
Reported Result: 4.04
--
Compound: Cc1cc(C(=O)N2CCCCC2c2cc(Cl)ccc2Cl)c(C)o1 (centres unmarked)
Property Measured: logP
Reported Result: 4.36
--
Compound: CCc1nn(C)c(F)c1C(=O)N1CCCCC1c1ccc(Cl)cc1 (centres unmarked)
Property Measured: logP
Reported Result: 3.35
--
Compound: COc1cc(OC)cc(C2CCCCN2C(=O)c2cc(C)oc2C)c1 (centres unmarked)
Property Measured: logP
Reported Result: 3.48
--
Compound: Cc1nn(C)c(F)c1C(=O)N1CCCCC1c1ccc(Br)s1 (centres unmarked)
Property Measured: logP
Reported Result: 3.13
--
Compound: Cc1ccccc1C1CCCCN1C(=S)c1c(C(F)F)nn(C)c1F (centres unmarked)
Property Measured: logP
Reported Result: 3.81
--
Compound: Cn1nc(C(F)F)c(C(=S)N2CCCCC2c2cccc(Br)c2)c1F (centres unmarked)
Property Measured: logP
Reported Result: 4.16
--
Compound: Cc1cc(C)cc(C2CCCCN2C(=O)c2cn(C)nc2C(Cl)Cl)c1 (centres unmarked)
Property Measured: logP
Reported Result: 3.85
--
Compound: Cc1cc(C)cc(C2CCCCN2C(=O)c2cn(C)nc2[N+](=O)[O-])c1 (centres unmarked)
Property Measured: logP
Reported Result: 3.09
--
Compound: Cn1nc(C(F)F)c(C(=O)N2CCCCC2c2ccc3ccccc3c2)c1F (centres unmarked)
Property Measured: logP
Reported Result: 3.69
--
Compound: Cc1nn(C)c(F)c1C(=O)N1CCCCC1c1cccc(Cl)c1 (centres unmarked)
Property Measured: logP
Reported Result: 2.94
--
Compound: Cc1cc(C(=O)N2CCCCC2Cc2cccc(C(F)(F)F)c2)c(C)o1 (centres unmarked)
Property Measured: logP
Reported Result: 4.06
--
Compound: Cn1nc(C(F)F)c(C(=S)N2CCCCC2c2ccc3ccccc3c2)c1F (centres unmarked)
Property Measured: logP
Reported Result: 4.36
--
Compound: CC(c1ccccc1)C1CCCCN1C(=O)c1c(C(F)F)nn(C)c1F (centres unmarked)
Property Measured: logP
Reported Result: 3.39
--
Compound: Cn1nc(C(F)F)c(C(=O)N2CCCCC2c2ccccc2Cl)c1Cl (centres unmarked)
Property Measured: logP
Reported Result: 3.48
--
Compound: CCc1nn(C)c(F)c1C(=O)N1CCCCC1c1ccccc1Br (centres unmarked)
Property Measured: logP
Reported Result: 3.25
--
Compound: Cn1nc(C(F)F)c(C(=S)N2CCCCC2c2ccc(Br)cc2)c1F (centres unmarked)
Property Measured: logP
Reported Result: 4.29
--
Compound: Cn1nc(C(F)F)c(C(=O)N2CCCCC2CCOc2ccc(Cl)cc2Cl)c1F (centres unmarked)
Property Measured: logP
Reported Result: 4.06
--
Compound: Cc1cc(C)cc(C2CCCCN2C(=O)c2sc(Cl)nc2Cl)c1 (centres unmarked)
Property Measured: logP
Reported Result: 4.86
--
Compound: Cn1nc(C(F)F)c(C(=O)N2CCCCC2Cc2cccc(C(F)(F)F)c2)c1F (centres unmarked)
Property Measured: logP
Reported Result: 3.59
--
Compound: COc1ccccc1CC1CCCCN1C(=S)c1c(C(F)F)nn(C)c1F (centres unmarked)
Property Measured: logP
Reported Result: 3.87
--
Compound: CCc1noc(C)c1C(=O)N1CCCCC1c1ccc(Br)cc1 (centres unmarked)
Property Measured: logP
Reported Result: 3.64
--
Compound: Cc1cc(C)cc(OCCC2CCCCN2C(=O)c2c(C(F)F)nn(C)c2F)c1 (centres unmarked)
Property Measured: logP
Reported Result: 3.92
--
Compound: Cc1cc(C)cc(C2CCCCN2C(=O)c2nnsc2C)c1 (centres unmarked)
Property Measured: logP
Reported Result: 3.60
--
Compound: Cc1cc(C)cc(C2CCCCN2C(=O)c2scnc2Cl)c1 (centres unmarked)
Property Measured: logP
Reported Result: 3.73
--
Compound: Cc1nn(C)c(F)c1C(=O)N1CCCCC1c1ccc(Br)cc1 (centres unmarked)
Property Measured: logP
Reported Result: 3.11
